Attribution: the array DNA melting data of Ke et al. (doi:10.1101/2024.01.08.574731)

experiment: folding enthalpy; higher = less favourable; fluorescence melt of hairpins on a sequencing array, two-state fit; settings: sodium 0.088 M

[
  {
    "biosequence": "GATCAAACGTTGATC ((((((...))))))",
    "folding enthalpy [kcal/mol]": -28.1
  },
  {
    "biosequence": "GACACAGCGAAAGCTGTC (((..(((....))))))",
    "folding enthalpy [kcal/mol]": -8.05
  },
  {
    "biosequence": "GATCCTAGAAGGATC ((((((...))))))",
    "folding enthalpy [kcal/mol]": -40.9
  },
  {
    "biosequence": "GCCGGCGAAAGCCTGGC ((((((....))).)))",
    "folding enthalpy [kcal/mol]": -24.8
  },
  {
    "biosequence": "GCTGAATCGAAAGATAGC (((..(((....))))))",
    "folding enthalpy [kcal/mol]": -17.3
  },
  {
    "biosequence": "GCCTCTCGAAAGAGCGGC (((.(((....))).)))",
    "folding enthalpy [kcal/mol]": -37
  },
  {
    "biosequence": "GGACCCGAAAGGGCTTCC ((((((....)))..)))",
    "folding enthalpy [kcal/mol]": -17
  },
  {
    "biosequence": "GCAAGGCGAAAGCGTGGC ((.(.((....)).).))",
    "folding enthalpy [kcal/mol]": -20.2
  },
  {
    "biosequence": "GACCCCGGAAACGGGGCC (.(((((....))))).)",
    "folding enthalpy [kcal/mol]": -12.9
  },
  {
    "biosequence": "GCCTGAGGAAACTCAAGC ((.((((....)))).))",
    "folding enthalpy [kcal/mol]": -21.6
  },
  {
    "biosequence": "GCCCGTCGAAAGACCGGC (((.(((....))).)))",
    "folding enthalpy [kcal/mol]": -38.4
  },
  {
    "biosequence": "GCCAACGAAAGTTGCGGC ((((((....)))..)))",
    "folding enthalpy [kcal/mol]": -16.9
  }
]

----------
assay: folding enthalpy; higher = less favourable; fluorescence melt of hairpins on a sequencing array, two-state fit; conditions: sodium 0.088 M

[
  {
    "biosequence": "GGAACTGCGAAAGCATCC (((..(((....))))))",
    "readout.units": "kJ/mol",
    "folding enthalpy": -27.6
  },
  {
    "biosequence": "GGCCGTGCGAAAGCAGCC (((..(((....))))))",
    "readout.units": "kJ/mol",
    "folding enthalpy": -68.2
  },
  {
    "biosequence": "GATGACGAAAGTCTCATC ((((((....)))..)))",
    "readout.units": "kJ/mol",
    "folding enthalpy": -40.7
  },
  {
    "biosequence": "GCGGGGGCCGC ((((...))))",
    "readout.units": "kJ/mol",
    "folding enthalpy": -38.8
  },
  {
    "biosequence": "GCTCCGCGAAAGCCGTGC ((.(.((....)).).))",
    "readout.units": "kJ/mol",
    "folding enthalpy": -39.7
  },
  {
    "biosequence": "GGCGGCACGAAAGTGGCC (((..(((....))))))",
    "readout.units": "kJ/mol",
    "folding enthalpy": -48.3
  },
  {
    "biosequence": "GCCGGGCGAAAGCCATGC ((..(((....)))..))",
    "readout.units": "kJ/mol",
    "folding enthalpy": -60.2
  },
  {
    "biosequence": "GACTGGCGAAAGCCGTC (((.(((....))))))",
    "readout.units": "kJ/mol",
    "folding enthalpy": -48.3
  },
  {
    "biosequence": "GATCCGATTTCGGATC ((((((....))))))",
    "readout.units": "kJ/mol",
    "folding enthalpy": -138
  },
  {
    "biosequence": "GATCCTTCGAAGGATC ((((((....))))))",
    "readout.units": "kJ/mol",
    "folding enthalpy": -207
  },
  {
    "biosequence": "GATCGAGGAAACTTGGTC ((.(.((....)).).))",
    "readout.units": "kJ/mol",
    "folding enthalpy": -33.6
  },
  {
    "biosequence": "GCGCTACCGAAAGGTCGC (((..(((....))))))",
    "readout.units": "kJ/mol",
    "folding enthalpy": -129
  }
]

----------
# folding enthalpy values compiled below
assay: folding enthalpy; higher = less favourable; fluorescence melt of hairpins on a sequencing array, two-state fit; settings: sodium 0.088 M
observation.type: folding enthalpy (kcal/mol)

[
  {
    "biosequence": "GGCAAGAAATTGCC (((((....)))))",
    "observation.type": "folding enthalpy",
    "assay.value": -33.2
  },
  {
    "biosequence": "GCTCGTGCGAAAGCAAGC (((..(((....))))))",
    "observation.type": "folding enthalpy",
    "assay.value": -7.01
  },
  {
    "biosequence": "GTCAATACGAAAGTAGAC (((..(((....))))))",
    "observation.type": "folding enthalpy",
    "assay.value": -12
  },
  {
    "biosequence": "GCGTAAGGAAACTCACGC ((((.((....)).))))",
    "observation.type": "folding enthalpy",
    "assay.value": -26.5
  },
  {
    "biosequence": "GTGCGACGAAAGTCACAC (((.(((....))).)))",
    "observation.type": "folding enthalpy",
    "assay.value": -43.9
  },
  {
    "biosequence": "GAGTAGGGAAACCTACCC (.(((((....))))).)",
    "observation.type": "folding enthalpy",
    "assay.value": -15.4
  },
  {
    "biosequence": "GTGCTTTCGAAAGAACAC (((..(((....))))))",
    "observation.type": "folding enthalpy",
    "assay.value": -19.8
  },
  {
    "biosequence": "GCGAACTATCGC ((((....))))",
    "observation.type": "folding enthalpy",
    "assay.value": -20.6
  },
  {
    "biosequence": "GGGTACCGAAAGGTCCC (((.(((....))))))",
    "observation.type": "folding enthalpy",
    "assay.value": -24.2
  },
  {
    "biosequence": "GATCCACGGATGGATC ((((((....))))))",
    "observation.type": "folding enthalpy",
    "assay.value": -32.4
  },
  {
    "biosequence": "GATCGATCCTCGATC ((((((...))))))",
    "observation.type": "folding enthalpy",
    "assay.value": -40.4
  },
  {
    "biosequence": "GTGGAAGGAAACTCCCAC ((((.((....)).))))",
    "observation.type": "folding enthalpy",
    "assay.value": -36.2
  },
  {
    "biosequence": "GTAGACGAAAGTCAATAC ((((((....)))..)))",
    "observation.type": "folding enthalpy",
    "assay.value": -13.5
  },
  {
    "biosequence": "GAACCGCGAAAGCGATTC (((.(((....))).)))",
    "observation.type": "folding enthalpy",
    "assay.value": -24.8
  },
  {
    "biosequence": "GATCCCCGGAGGGATC ((((((....))))))",
    "observation.type": "folding enthalpy",
    "assay.value": -19.2
  },
  {
    "biosequence": "GCATCGCGAAAGCCATGC ((((.((....)).))))",
    "observation.type": "folding enthalpy",
    "assay.value": -35.7
  },
  {
    "biosequence": "GTAATCGAAAGATTAC ((((((....))))))",
    "observation.type": "folding enthalpy",
    "assay.value": -48.2
  },
  {
    "biosequence": "TACTGGAAACAGTA (((((....)))))",
    "observation.type": "folding enthalpy",
    "assay.value": -15.8
  },
  {
    "biosequence": "GCTGTCGAAAGACTAGC ((((((....))).)))",
    "observation.type": "folding enthalpy",
    "assay.value": -24.4
  },
  {
    "biosequence": "AGGATGAAAATCCT (((((....)))))",
    "observation.type": "folding enthalpy",
    "assay.value": -22.2
  },
  {
    "biosequence": "GATCGCACTGGCGATC ((((((....))))))",
    "observation.type": "folding enthalpy",
    "assay.value": -34
  },
  {
    "biosequence": "GATCTCTTGTGAGATC ((((((....))))))",
    "observation.type": "folding enthalpy",
    "assay.value": -48.6
  },
  {
    "biosequence": "GGTCGAGCGAAAGCTACC (((..(((....))))))",
    "observation.type": "folding enthalpy",
    "assay.value": -11.9
  },
  {
    "biosequence": "GATCATAGTAATGATC ((((((....))))))",
    "observation.type": "folding enthalpy",
    "assay.value": -37.2
  },
  {
    "biosequence": "GATCTTACTGAAGATC ((((((....))))))",
    "observation.type": "folding enthalpy",
    "assay.value": -26.9
  },
  {
    "biosequence": "GATCAACAGCTTGATC ((((((....))))))",
    "observation.type": "folding enthalpy",
    "assay.value": -29.1
  }
]
